Hey, just so you know, these numbers are from patent US12384776B2.

Listed molecules paired with reported IC50
target: Nanoluciferase-BRD9 fusion protein (3×FLAG-NLuc-BRD9) in SYO-1 cells (Homo sapiens (Human), UniProt Q9H8M2); assay: SYO1 BRD9 NanoLuc degradation assay; format: cell-based; settings: SYO-1 cells, 6 hours, Table 6A
Sequence (Q9H8M2 whole entry, the tested form may be a part): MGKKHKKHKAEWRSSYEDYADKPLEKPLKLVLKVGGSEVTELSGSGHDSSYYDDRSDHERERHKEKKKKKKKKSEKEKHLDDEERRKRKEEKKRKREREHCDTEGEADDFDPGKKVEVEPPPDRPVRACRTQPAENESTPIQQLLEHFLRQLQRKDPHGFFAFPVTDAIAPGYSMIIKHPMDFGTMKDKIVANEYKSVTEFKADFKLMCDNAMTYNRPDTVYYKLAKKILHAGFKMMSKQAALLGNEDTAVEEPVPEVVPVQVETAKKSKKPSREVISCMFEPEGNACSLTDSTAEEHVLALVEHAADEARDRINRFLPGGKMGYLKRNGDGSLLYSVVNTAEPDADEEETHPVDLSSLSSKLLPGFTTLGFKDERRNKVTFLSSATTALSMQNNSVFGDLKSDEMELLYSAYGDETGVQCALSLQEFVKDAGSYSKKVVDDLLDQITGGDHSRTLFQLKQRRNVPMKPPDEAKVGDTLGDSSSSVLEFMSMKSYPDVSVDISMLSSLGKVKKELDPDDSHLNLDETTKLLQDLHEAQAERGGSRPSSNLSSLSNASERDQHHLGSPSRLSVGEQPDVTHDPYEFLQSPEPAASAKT

COc1cc(-c2cn(C)c(=O)c3c2CCN(C(=O)NCCOCCNc2ccc4c(c2)C(=O)N(C2CCC(=O)NC2=O)C4=O)C3)cc(OC)c1CN(C)C (stereo not shown); > 10 nM
CNC(=O)N1CCc2c(-c3cc(OC)c(CN4CC(NC(=O)CCCCCOc5cccc6c5C(=O)N(C5CCC(=O)NC5=O)C6=O)C4)c(OC)c3)cn(C)c(=O)c2C1 (stereo not shown); > 10 nM
CNC(=O)N1CCc2c(-c3cc(OC)c(CN(C)C(=O)CCCCCOc4cccc5c4C(=O)N(C4CCC(=O)NC4=O)C5=O)c(OC)c3)cn(C)c(=O)c2C1 (stereo not shown); < 10 nM

Q) So what does the record say about IC50 for COc1cc(-c2cn(C)c(=O)c3c2CCN(C(=O)NCCOCCNc2ccc4c(c2)C(=O)N(C2CCC(=O)NC2=O)C4=O)C3)c(OC)cc1CN(C)C (stereo not shown) ?
A) > 100 nM
